Ref: ChEMBL document CHEMBL3988442

- TESTED SYSTEM: Chromo domain-containing protein 1 (Saccharomyces cerevisiae (strain ATCC 204508 / S288c) (Baker's yeast)) (UniProt P32657)
- Sequence (P32657 whole entry, the tested form may be a part): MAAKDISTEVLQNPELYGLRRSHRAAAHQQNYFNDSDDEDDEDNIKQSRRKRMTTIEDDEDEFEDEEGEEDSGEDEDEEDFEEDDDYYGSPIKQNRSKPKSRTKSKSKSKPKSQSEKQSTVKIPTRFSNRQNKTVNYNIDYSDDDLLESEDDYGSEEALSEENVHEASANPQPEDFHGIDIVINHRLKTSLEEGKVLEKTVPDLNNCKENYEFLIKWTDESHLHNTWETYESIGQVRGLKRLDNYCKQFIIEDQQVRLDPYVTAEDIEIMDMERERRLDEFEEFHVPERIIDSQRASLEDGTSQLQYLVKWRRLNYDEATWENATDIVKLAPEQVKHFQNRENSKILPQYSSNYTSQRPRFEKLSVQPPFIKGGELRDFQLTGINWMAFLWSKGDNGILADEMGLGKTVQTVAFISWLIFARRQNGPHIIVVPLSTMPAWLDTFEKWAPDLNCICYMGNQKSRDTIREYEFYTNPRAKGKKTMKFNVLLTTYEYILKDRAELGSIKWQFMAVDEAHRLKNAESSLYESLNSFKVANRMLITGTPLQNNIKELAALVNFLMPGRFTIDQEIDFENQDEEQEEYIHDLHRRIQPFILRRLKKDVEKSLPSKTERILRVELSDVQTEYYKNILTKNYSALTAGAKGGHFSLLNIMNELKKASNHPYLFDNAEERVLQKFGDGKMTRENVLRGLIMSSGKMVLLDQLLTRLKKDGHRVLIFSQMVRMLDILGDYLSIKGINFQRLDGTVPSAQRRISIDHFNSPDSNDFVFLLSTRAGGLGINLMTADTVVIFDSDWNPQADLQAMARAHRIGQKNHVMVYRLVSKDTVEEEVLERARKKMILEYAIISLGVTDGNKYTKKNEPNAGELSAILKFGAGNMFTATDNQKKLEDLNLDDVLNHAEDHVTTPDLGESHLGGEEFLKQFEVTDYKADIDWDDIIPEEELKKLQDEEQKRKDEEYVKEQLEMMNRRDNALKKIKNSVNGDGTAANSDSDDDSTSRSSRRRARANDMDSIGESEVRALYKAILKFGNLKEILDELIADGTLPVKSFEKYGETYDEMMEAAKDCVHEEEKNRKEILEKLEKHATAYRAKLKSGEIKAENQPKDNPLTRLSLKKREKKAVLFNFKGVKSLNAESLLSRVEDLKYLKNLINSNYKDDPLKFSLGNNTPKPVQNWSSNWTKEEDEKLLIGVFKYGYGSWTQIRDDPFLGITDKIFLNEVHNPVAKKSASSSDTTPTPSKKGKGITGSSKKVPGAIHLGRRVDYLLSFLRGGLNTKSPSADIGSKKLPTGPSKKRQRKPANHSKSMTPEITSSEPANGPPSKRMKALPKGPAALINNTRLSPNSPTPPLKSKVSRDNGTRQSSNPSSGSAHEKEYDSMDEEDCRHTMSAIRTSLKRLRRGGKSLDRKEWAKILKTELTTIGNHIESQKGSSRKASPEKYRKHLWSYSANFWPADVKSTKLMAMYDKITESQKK
- MEASUREMENT PROTOCOL: ScCHD-1 Enzyme Inhibition Assay
- Assay type: functional
- Set-up: scale not given: in the data most compounds retested in dose-response had high values
- RUN CONDITIONS: 30 µM
QUANTITY: Percent Effect (%)
Numbers only; they are read as %.

Incoming: // Percent Effect lookup, key: Cc1nc(N2CCCC2)ncc1-c1cc(O)nc(N2CCCC2)n1
Outgoing: -1.52

Incoming: What measured Percent Effect goes with CNS(=O)(=O)c1cccc(CNc2ccc(C(F)(F)F)nn2)c1 ?
Outgoing: -1.87

Incoming: Please look up its Percent Effect: Cc1cccc(CN2CCC3(CCCN(C(=O)NC4CC4)C3)C2=O)n1 (stereo not drawn)
Outgoing: -9.83

Incoming: Dear colleague, I am looking for the recorded Percent Effect of the following compound: O=C(CN1CCCC1Cn1cccn1)NC1CCOCC1 (stereo not drawn)
Outgoing: -2.17

Incoming: Sample Cc1cc(S(=O)(=O)N2CCCc3cc(F)cc(F)c32)sc1C(=O)O — what was its Percent Effect?
Outgoing: -5.34

Incoming: Which measured Percent Effect value corresponds to Cc1cc(CN2CCN(C(c3ccccc3)c3ccccc3)CC2)no1 ?
Outgoing: -8.11

Incoming: Look at this compound and give its reported Percent Effect. COc1ccc(-c2nnc(SC(C)C(=O)NCC(C)C)[nH]2)c(OC)c1 (stereo not drawn)
Outgoing: 2.44

Incoming: Field request: Percent Effect | item: CN(Cc1nc(C2CC2)no1)C1CCCN(c2cccnn2)C1 (stereo not drawn)
Outgoing: 4.91

Incoming: Any idea what Percent Effect was measured for O=C(N[C@@H]1CN(Cc2ccccc2)C[C@@H]2CCCO[C@@H]21)C1CC1 ?
Outgoing: -7.85

Incoming: Entry CCS(=O)(=O)N1CCC(c2nnc(Cn3cccn3)n2C2CC2)CC1 : reported Percent Effect = ?
Outgoing: -2.3

Incoming: Item Cc1nc(COC[C@@H]2CC[C@H]3[C@H](CCN3S(C)(=O)=O)O2)cs1 has what recorded Percent Effect?
Outgoing: 0.52

Incoming: What value of Percent Effect has been recorded for this entry: COc1ccc(CS(=O)(=O)CC(=O)NCc2ccccc2F)cc1F
Outgoing: -2.98

Incoming: Given Cc1noc([C@@]23CCO[C@@H]2CCN(C(=O)C2CCOCC2)C3)n1 , state its recorded Percent Effect.
Outgoing: -7.84

Incoming: Which value of Percent Effect has been reported for O=C(CO[C@@H]1CC[C@H]2[C@H]1OCCN2CC1CCOCC1)N1CCCC1 in the records?
Outgoing: 1.37

Incoming: What value of Percent Effect has been reported for the following compound? c1cnc2c(c1)cc([C@H]1CCCO1)n2CCN1CCCCC1
Outgoing: -12.4

Incoming: Could you tell me which Percent Effect is on file for OC(COCc1cccs1)CN1CCC(c2ccn[nH]2)CC1 (stereo not drawn) ?
Outgoing: -3.55

Incoming: Returns the measured Percent Effect for the input compound. Input: CN(C)C(=O)N1C[C@H](Oc2ccccn2)[C@H]2OCCC[C@H]21
Outgoing: -3.5

Incoming: Give its Percent Effect value. Item: Cc1nc(C)n(C2CCCN(C(=O)COCc3ccccc3)C2)n1 (stereo not drawn)
Outgoing: -7.13

Incoming: Query: Percent Effect; subject: O=C(Cn1nc(-c2cccs2)ccc1=O)N1CCCCCC1
Outgoing: -3.49

Incoming: Which Percent Effect value belongs to Cc1cc(CNC(=O)C2CCCCN2C(=O)OC(C)(C)C)no1 (stereo not drawn) ?
Outgoing: -3.75

Incoming: Need Percent Effect, item NC(=O)C1CN(C(=O)Nc2cc(Cl)cc(Cl)c2)CCO1 (stereo not drawn)
Outgoing: 2.8
